Data provenance is PubChem BioAssay (NCI).

Test: NCI Yeast Anticancer Drug Screen. Data for the sgs1 mgt1 strain (AID 161);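 also: 0% = growth of cultures given vehicle only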
Details: S. cerevisiae sgs1 mgt1 strain, at 50.0 µM, active compounds read high
The panel holds about 79,000 compounds, 15% with a hit somewhere; the sample as a whole holds those more often.
Listed here: items and their measured growth inhibition.
Your answer is read as %, so omit the unit and give the number.

Examples with answers:
compound: Cc1ccc(/C=N/Nc2ccccn2)s1
measure.unit: %
growth inhibition: -2
//
compound: COc1cc([C@H]2OC[C@@H]3C(c4cc(OC)c5c(c4)OCO5)OC[C@H]23)cc(OC)c1OC (some centres undefined)
measure.unit: %
growth inhibition: -26.9
//
compound: O=C(O)COc1cc(-c2ccccc2F)nc2cc3c(cc12)OCO3
measure.unit: %
growth inhibition: 15.9
//
compound: Cc1ccc(/C=C2/N=C(N/N=C\c3ccccc3)NC2=O)cc1
measure.unit: %
growth inhibition: -19.4
//
compound: O=S(=O)(O)c1cc(O)c2c(O)cc(S(=O)(=O)O)cc2c1
measure.unit: %
growth inhibition: -21.2

Query: Would you kindly share the measured growth inhibition for O=C(/C=C(\[O-])c1ccccc1)CCCCCCC(=O)/C=C(\[O-])c1ccccc1.O=C(/C=C(\[O-])c1ccccc1)CCCCCCC(=O)/C=C(\[O-])c1ccccc1.O=C(/C=C(\[O-])c1ccccc1)CCCCCCC(=O)/C=C(\[O-])c1ccccc1.[Nd+3].[Nd+3] ?
Result: 30.1

Query: Would you kindly share the measured growth inhibition for NC(=S)NS(=O)(=O)c1ccc(N)cc1 ?
Result: -6

Query: Would you kindly share the measured growth inhibition for CC/C(Cl)=N\OC(=O)Nc1ccc(OC)cc1 ?
Result: -3.3

Query: Would you kindly share the measured growth inhibition for O=C(O)CCNC(=O)c1ccccc1 ?
Result: -20

Query: Would you kindly share the measured growth inhibition for C=C1C2CCC3C4(C)CCCC(C)(C(=O)O)C4CCC3(C2)C1OC(=O)/C(C)=C/C (centres undefined) ?
Result: -7.05

Query: Would you kindly share the measured growth inhibition for C[C@@H]1CC[C@H]2C(C)(C)[C@H]3C[C@@]12CC[C@@]3(C)O ?
Result: 12.8

Query: Would you kindly share the measured growth inhibition for Cc1c(CNc2ccc(C(=O)NC(CC(=O)O)C(=O)O)cc2)ccc2nc(N)nc(N)c12 (centres undefined) ?
Result: 47.8

Query: Would you kindly share the measured growth inhibition for C[C@]12CC[C@@H]3c4ccc(OS(N)(=O)=O)cc4CC[C@H]3[C@@H]1CCC2=O ?
Result: -2.05

Query: Would you kindly share the measured growth inhibition for COC(=O)c1nc(Br)cnc1N ?
Result: 2.1

Query: Would you kindly share the measured growth inhibition for O=C(/C=C(\[O-])c1ccccc1)CCCCCCC(=O)/C=C(\[O-])c1ccccc1.O=C(/C=C(\[O-])c1ccccc1)CCCCCCC(=O)/C=C(\[O-])c1ccccc1.O=C(/C=C(\[O-])c1ccccc1)CCCCCCC(=O)/C=C(\[O-])c1ccccc1.[La+3].[La+3] ?
Result: 5.5

Query: Would you kindly share the measured growth inhibition for COC(=O)C(=O)C(C(=O)C(=O)Nc1ccccc1C(C)=O)c1nc2ccc(C(=O)c3ccccc3)cc2[nH]c1=O (centres undefined) ?
Result: 33.6

Query: Would you kindly share the measured growth inhibition for Cn1cnc2c(=O)[nH]c(=O)[nH]c21 ?
Result: -43.4
